Target or system: Toll-like receptor 2 (Homo sapiens)
Sequence (O60603 whole entry): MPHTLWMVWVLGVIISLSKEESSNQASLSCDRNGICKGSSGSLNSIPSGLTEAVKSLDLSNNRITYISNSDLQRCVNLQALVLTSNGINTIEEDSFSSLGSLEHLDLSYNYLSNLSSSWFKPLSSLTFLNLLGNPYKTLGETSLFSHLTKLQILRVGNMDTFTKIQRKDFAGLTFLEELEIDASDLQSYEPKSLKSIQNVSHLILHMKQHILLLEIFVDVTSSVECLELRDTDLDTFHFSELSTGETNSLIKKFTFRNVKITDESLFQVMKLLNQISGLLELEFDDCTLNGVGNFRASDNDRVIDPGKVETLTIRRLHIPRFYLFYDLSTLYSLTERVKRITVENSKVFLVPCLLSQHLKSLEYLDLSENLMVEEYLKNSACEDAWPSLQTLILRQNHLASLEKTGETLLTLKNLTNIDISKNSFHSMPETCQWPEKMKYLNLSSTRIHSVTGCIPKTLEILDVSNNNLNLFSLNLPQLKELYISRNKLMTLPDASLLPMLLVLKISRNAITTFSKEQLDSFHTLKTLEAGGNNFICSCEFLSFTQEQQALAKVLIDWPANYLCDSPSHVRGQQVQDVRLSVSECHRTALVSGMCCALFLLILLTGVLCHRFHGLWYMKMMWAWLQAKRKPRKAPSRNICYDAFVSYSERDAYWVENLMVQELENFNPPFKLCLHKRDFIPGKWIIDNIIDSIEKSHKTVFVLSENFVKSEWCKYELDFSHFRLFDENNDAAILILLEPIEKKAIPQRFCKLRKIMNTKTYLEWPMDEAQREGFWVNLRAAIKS
Method notes: Agonist activity at TLR2 (unknown origin)
pEC50: −log10 of the molar value.
Recorded measurements of pEC50, one per entry

Mol	pEC50
CCCCCCCCCCCCCCCC(=O)N[C@@H](SC[C@@H](COC(=O)CCCCCCCCCCCCCCC)OC(=O)CCCCCCCCCCCCCCC)C(=O)N[C@@H](CO)C(=O)N[C@@H](CCCCN)C(=O)N[C@@H](CCCCN)C(=O)N[C@@H](CCCCN)C(=O)N[C@@H](CCCCN)C(=O)N[C@@H](CO)C(=O)N[C@@H](CC(C)C)C(=O)N[C@@H](CC(C)C)C(=O)N[C@@H](CCSC)C(=O)N[C@@H](Cc1c[nH]c2ccccc12)C(=O)N[C@H](C(=O)N[C@H](C(=O)N[C@@H](CCC(N)=O)C(=O)N[C@H](C(=O)O)C(C)C)[C@@H](C)O)[C@@H](C)CC	4.64
CCCCCCCCCCCCCCCC(=O)OCCCC[C@H](CS[C@H](N)C(=O)N[C@@H](CO)C(=O)N[C@@H](CCCCN)C(=O)N[C@@H](CCCCN)C(=O)N[C@@H](CCCCN)C(=O)N[C@@H](CCCCN)C(=O)N[C@@H](CO)C(=O)N[C@@H](CC(C)C)C(=O)N[C@@H](CC(C)C)C(=O)N[C@@H](CCSC)C(=O)N[C@@H](Cc1c[nH]c2ccccc12)C(=O)N[C@H](C(=O)N[C@H](C(=O)N[C@@H](CCC(N)=O)C(=O)N[C@H](C(=O)O)C(C)C)[C@@H](C)O)[C@@H](C)CC)OC(=O)CCCCCCCCCCCCCCC	6.52
CCCCCCCCCCCCCCCC(=O)OCCC[C@H](CS[C@H](N)C(=O)N[C@@H](CO)C(=O)N[C@@H](CCCCN)C(=O)N[C@@H](CCCCN)C(=O)N[C@@H](CCCCN)C(=O)N[C@@H](CCCCN)C(=O)N[C@@H](CO)C(=O)N[C@@H](CC(C)C)C(=O)N[C@@H](CC(C)C)C(=O)N[C@@H](CCSC)C(=O)N[C@@H](Cc1c[nH]c2ccccc12)C(=O)N[C@H](C(=O)N[C@H](C(=O)N[C@@H](CCC(N)=O)C(=O)N[C@H](C(=O)O)C(C)C)[C@@H](C)O)[C@@H](C)CC)OC(=O)CCCCCCCCCCCCCCC	6.42
CCCCCCCCCCCCCCCC(=O)OCCCCC[C@H](CS[C@H](N)C(=O)N[C@@H](CO)C(=O)N[C@@H](CCCCN)C(=O)N[C@@H](CCCCN)C(=O)N[C@@H](CCCCN)C(=O)N[C@@H](CCCCN)C(=O)N[C@@H](CO)C(=O)N[C@@H](CC(C)C)C(=O)N[C@@H](CC(C)C)C(=O)N[C@@H](CCSC)C(=O)N[C@@H](Cc1c[nH]c2ccccc12)C(=O)N[C@H](C(=O)N[C@H](C(=O)N[C@@H](CCC(N)=O)C(=O)N[C@H](C(=O)O)C(C)C)[C@@H](C)O)[C@@H](C)CC)OC(=O)CCCCCCCCCCCCCCC	5.35
CCCCCCCCCCCCCCCC(=O)OCC[C@@H](CS[C@H](NC(C)=O)C(=O)N[C@@H](CO)C(=O)N[C@@H](CCCCN)C(=O)N[C@@H](CCCCN)C(=O)N[C@@H](CCCCN)C(=O)N[C@@H](CCCCN)C(=O)N[C@@H](CO)C(=O)N[C@@H](CC(C)C)C(=O)N[C@@H](CC(C)C)C(=O)N[C@@H](CCSC)C(=O)N[C@@H](Cc1c[nH]c2ccccc12)C(=O)N[C@H](C(=O)N[C@H](C(=O)N[C@@H](CCC(N)=O)C(=O)N[C@H](C(=O)O)C(C)C)[C@@H](C)O)[C@@H](C)CC)OC(=O)CCCCCCCCCCCCCCC	4.76
CCCCCCCCCCCCCCCC(=O)OCC[C@@H](CS[C@H](N)C(=O)N[C@@H](CO)C(=O)N[C@@H](CCCCN)C(=O)N[C@@H](CCCCN)C(=O)N[C@@H](CCCCN)C(=O)N[C@@H](CCCCN)C(=O)N[C@@H](CO)C(=O)N[C@@H](CC(C)C)C(=O)N[C@@H](CC(C)C)C(=O)N[C@@H](CCSC)C(=O)N[C@@H](Cc1c[nH]c2ccccc12)C(=O)N[C@H](C(=O)N[C@H](C(=O)N[C@@H](CCC(N)=O)C(=O)N[C@H](C(=O)O)C(C)C)[C@@H](C)O)[C@@H](C)CC)OC(=O)CCCCCCCCCCCCCCC	4.34
CCCCCCCCCCCCCCCC(=O)OC[C@H](CS[C@H](NC(C)=O)C(=O)N[C@@H](CO)C(=O)N[C@@H](CCCCN)C(=O)N[C@@H](CCCCN)C(=O)N[C@@H](CCCCN)C(=O)N[C@@H](CCCCN)C(=O)N[C@@H](CO)C(=O)N[C@@H](CC(C)C)C(=O)N[C@@H](CC(C)C)C(=O)N[C@@H](CCSC)C(=O)N[C@@H](Cc1c[nH]c2ccccc12)C(=O)N[C@H](C(=O)N[C@H](C(=O)N[C@@H](CCC(N)=O)C(=O)N[C@H](C(=O)O)C(C)C)[C@@H](C)O)[C@@H](C)CC)OC(=O)CCCCCCCCCCCCCCC	6.55
